- System: U2OS
- METHOD NOTES: Multiplex assay against U2OS
- Format: toxicity, cell-based
- CONDITION CONTEXT: human, 12 h, 1 µM, compound concentration 1 uM, replicate 2
REPORTED METRIC: Population Hoechst High Intensity Objects (%)
State the answer as a number, implicitly in %.

Sample records with Population Hoechst High Intensity Objects (%):
CNC[C@H](O)c1ccc(O)c(O)c1 [EPINEPHRINE] : 0
CCCN1CCC[C@@H]2Cc3n[nH]cc3C[C@H]21.Cl [QUINPIROLE HYDROCHLORIDE] : 0

# input Entry CC[C@H]1OC(=O)[C@H](C)[C@@H](O[C@H]2C[C@@](C)(OC)[C@@H](O)[C@H](C)O2)[C@H](C)[C@@H](O[C@@H]2O[C@H](C)C[C@H](N(C)C)[C@H]2O)[C@@]2(C)CC(C)=C(O2)[C@H](C)[C@@H](O)[C@]1(C)O has what Population Hoechst High Intensity Objects (%)?
# output 1
